ASSAYED TARGET: T1, cell surface mALK on Neuro2a cells (Mus musculus, UniProt P97793)
T1 construct: Neuro-2a cells that express low levels of endogenous murine ALK; endogenous in cells; host or cells: Neuro-2a (Neuro2a) mouse neuroblastoma cells
T1 sequence (P97793 19-1621): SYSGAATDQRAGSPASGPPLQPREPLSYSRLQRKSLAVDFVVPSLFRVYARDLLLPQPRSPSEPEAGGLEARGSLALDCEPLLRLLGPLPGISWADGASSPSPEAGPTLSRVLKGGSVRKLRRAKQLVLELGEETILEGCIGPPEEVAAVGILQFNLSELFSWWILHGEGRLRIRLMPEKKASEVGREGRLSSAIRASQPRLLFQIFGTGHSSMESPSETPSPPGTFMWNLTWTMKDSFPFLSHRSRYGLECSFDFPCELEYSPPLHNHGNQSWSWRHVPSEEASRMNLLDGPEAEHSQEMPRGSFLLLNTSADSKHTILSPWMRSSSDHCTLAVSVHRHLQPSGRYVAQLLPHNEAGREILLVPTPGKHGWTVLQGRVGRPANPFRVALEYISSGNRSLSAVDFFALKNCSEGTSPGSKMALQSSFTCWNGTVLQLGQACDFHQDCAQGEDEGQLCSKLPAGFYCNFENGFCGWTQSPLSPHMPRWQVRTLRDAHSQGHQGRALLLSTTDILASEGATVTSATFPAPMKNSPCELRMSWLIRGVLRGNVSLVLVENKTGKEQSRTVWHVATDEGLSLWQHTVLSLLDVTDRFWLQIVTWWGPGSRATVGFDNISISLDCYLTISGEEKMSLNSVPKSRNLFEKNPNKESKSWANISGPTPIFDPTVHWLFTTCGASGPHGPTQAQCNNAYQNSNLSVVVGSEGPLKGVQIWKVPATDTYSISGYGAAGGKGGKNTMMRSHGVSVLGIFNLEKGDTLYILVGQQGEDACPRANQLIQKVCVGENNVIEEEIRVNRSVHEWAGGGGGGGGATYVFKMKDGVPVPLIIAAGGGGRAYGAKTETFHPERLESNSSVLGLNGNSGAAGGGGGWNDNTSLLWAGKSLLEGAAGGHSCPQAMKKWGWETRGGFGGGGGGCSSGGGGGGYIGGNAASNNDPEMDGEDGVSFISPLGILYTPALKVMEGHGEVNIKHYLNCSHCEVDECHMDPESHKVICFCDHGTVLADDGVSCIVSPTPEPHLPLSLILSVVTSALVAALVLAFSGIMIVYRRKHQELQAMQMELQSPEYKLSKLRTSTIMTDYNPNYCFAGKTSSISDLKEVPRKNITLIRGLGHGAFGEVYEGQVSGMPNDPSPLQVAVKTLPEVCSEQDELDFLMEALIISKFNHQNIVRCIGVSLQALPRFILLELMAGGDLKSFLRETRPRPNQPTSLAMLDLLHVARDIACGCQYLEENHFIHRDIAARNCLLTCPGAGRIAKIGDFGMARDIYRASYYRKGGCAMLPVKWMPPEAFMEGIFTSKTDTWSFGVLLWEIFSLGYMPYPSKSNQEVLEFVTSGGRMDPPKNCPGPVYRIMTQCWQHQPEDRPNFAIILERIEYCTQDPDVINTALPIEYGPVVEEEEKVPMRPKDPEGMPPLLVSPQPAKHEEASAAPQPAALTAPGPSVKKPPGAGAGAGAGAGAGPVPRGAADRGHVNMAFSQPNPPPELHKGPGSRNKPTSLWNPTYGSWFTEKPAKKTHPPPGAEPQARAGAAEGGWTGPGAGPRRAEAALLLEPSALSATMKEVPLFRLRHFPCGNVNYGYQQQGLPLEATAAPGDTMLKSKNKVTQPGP
EXPERIMENTAL PROTOCOL: KD of humanized antibodies on Neuro2a (mouse) cells
Type: binding
CONDITION SET: FACS, mean
The following molecules are listed with their measured Kd values.
Note: unit nM is implicit; provide only the numeric part.

MOLECULE	Kd (nM)
Ab352: humanized anti-ALK antibody; VL SEQ ID NO: 421, VH SEQ ID NO: 430 (antibody, V domains shown, VH domain - Ab352; VL domain - Ab351) VH: EVQLVQSGPEVKKPGTSVKLSCKASGYTFTSYWMHWVRQARGQRLEWIGYIKPSSGYTKYNQKFKDRATLTADKSTSTAYMELSSLRSEDTAVYYCARDYYGSSSWFAYWGQGTLVTVSS VL: EIVMTQSPAFLSVTPGEKVTITCKASQNVGTNVAWYQQKPDQAPKALIYSASYRYSGVPSRFSGSGSGTDFTLTISSLEAEDAATYYCQQYNSYPYMYTFGQGTKLEIK	7.7

Field Kd (entry Ab355: humanized anti-ALK antibody; VL SEQ ID NO: 421, VH SEQ ID NO: 433 (antibody, V domains shown, VH domain - Ab355; VL domain - Ab351) VH: QVQLVQSGAEVAKPGASVKLSCKASGYTFTSYWMHWVKQAPGQGLEWIGYIKPSSGYTKYNQKFKDKATLTADKSTSTAYMELRSLRSDDTAVYYCARDYYGSSSWFAYWGQGTLVTVSS VL: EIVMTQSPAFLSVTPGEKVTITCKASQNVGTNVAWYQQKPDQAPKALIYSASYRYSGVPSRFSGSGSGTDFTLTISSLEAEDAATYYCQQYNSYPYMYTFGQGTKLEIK ) reads 5.1

Values compiled from patent US11091559B2.
